Molecular target: Estrogen receptor (Mus musculus) (UniProt O08537+P19785)
Sequence (O08537 whole entry, looked up): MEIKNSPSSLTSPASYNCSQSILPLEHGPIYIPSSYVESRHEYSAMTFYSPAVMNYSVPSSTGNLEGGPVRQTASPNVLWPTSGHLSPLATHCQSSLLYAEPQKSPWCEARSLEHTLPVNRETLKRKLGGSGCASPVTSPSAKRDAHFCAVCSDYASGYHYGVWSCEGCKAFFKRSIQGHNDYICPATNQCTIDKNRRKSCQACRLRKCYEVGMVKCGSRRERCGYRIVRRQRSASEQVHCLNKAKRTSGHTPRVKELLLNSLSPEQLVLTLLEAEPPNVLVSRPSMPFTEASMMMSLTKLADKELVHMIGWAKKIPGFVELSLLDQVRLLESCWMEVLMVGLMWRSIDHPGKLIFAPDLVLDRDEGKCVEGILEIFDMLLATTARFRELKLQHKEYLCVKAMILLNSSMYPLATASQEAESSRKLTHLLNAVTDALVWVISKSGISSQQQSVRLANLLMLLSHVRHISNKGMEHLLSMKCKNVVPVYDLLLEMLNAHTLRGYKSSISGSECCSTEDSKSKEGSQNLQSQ
Sequence (P19785 whole entry, looked up): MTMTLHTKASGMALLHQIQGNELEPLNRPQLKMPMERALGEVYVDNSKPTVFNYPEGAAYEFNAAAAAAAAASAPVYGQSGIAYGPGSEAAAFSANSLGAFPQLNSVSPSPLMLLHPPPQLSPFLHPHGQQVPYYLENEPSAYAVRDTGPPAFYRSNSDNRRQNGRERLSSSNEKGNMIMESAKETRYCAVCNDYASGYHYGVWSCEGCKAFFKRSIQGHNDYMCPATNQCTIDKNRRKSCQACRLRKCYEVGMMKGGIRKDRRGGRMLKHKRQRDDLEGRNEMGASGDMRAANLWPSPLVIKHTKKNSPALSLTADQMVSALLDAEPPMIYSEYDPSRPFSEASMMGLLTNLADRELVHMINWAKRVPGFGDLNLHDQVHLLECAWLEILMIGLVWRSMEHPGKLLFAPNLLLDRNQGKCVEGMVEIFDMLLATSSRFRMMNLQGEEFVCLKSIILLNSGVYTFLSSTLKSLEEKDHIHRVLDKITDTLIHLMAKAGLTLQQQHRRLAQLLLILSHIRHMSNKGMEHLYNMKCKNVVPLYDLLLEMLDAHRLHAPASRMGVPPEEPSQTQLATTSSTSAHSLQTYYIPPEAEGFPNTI
Assay: Anti-estrogenic activity as Uterus dry weight (mg)/body weight (g) *100 in mice at 1 ug
Type: functional, tissue-based
Threshold check on Activity: strictly below 50 is true; on or above 50 is false.

{"Smi": "CC(=O)Oc1ccc(-c2c(C)c3ccc(OC(C)=O)cc3n2-c2ccccc2)cc1", "Discrete Label": "true"}
{"Smi": "CC(=O)Oc1ccc(-c2c(C)c3ccc(OC(C)=O)cc3n2Cc2ccccc2)cc1", "Discrete Label": "false"}
{"Smi": "COc1ccc(Cn2c(-c3ccc(OC(C)=O)cc3)c(C)c3cc(OC(C)=O)ccc32)cc1", "Discrete Label": "true"}

---

Reported Activity values for a set of molecules
Biological target: Estrogen receptor (Mus musculus) (UniProt O08537+P19785)
Assay: Anti-estrogenic activity as Uterus dry weight (mg)/body weight (g) *100 in mice at 5 ug
Assay type: functional, tissue-based
Readout Label: Activity

{"Smi": "CC(=O)Oc1ccc(-c2c(C)c3ccc(OC(C)=O)cc3n2Cc2ccccc2)cc1", "Readout Number": 50.4}
{"Smi": "CC(=O)Oc1ccc(-c2c(C)c3ccc(OC(C)=O)cc3n2-c2ccccc2)cc1", "Readout Number": 41}
{"Smi": "CC(=O)Oc1ccc(-c2c(C)c3cc(OC(C)=O)ccc3n2Cc2ccccc2)cc1", "Readout Number": 48.7}
{"Smi": "CC(=O)Oc1ccc(-c2c(C)c3cc(OC(C)=O)ccc3n2Cc2ccc(C)cc2)cc1", "Readout Number": 46.3}
{"Smi": "COc1ccc(Cn2c(-c3ccc(OC(C)=O)cc3)c(C)c3cc(OC(C)=O)ccc32)cc1", "Readout Number": 47.4}

---

Molecular target: Estrogen receptor (Mus musculus) (UniProt O08537+P19785)
Experiment: Anti-estrogenic activity as Uterus dry weight (mg)/body weight (g) *100 in mice at 25 ug
Assay type: functional, tissue-based
Threshold check on Activity: strictly below 40 is t; on or above 40 is f.

{"Smi": "CC(=O)Oc1ccc(-c2c(C)c3cc(OC(C)=O)ccc3n2Cc2ccc(C#N)cc2)cc1", "Discrete Label": "t"}
{"Smi": "CC(=O)Oc1ccc(-c2c(C)c3ccc(OC(C)=O)cc3n2Cc2ccccc2)cc1", "Discrete Label": "f"}
{"Smi": "COc1ccc(Cn2c(-c3ccc(OC(C)=O)cc3)c(C)c3cc(OC(C)=O)ccc32)cc1", "Discrete Label": "f"}
{"Smi": "CC(=O)Oc1ccc(-c2c(C)c3cc(OC(C)=O)ccc3n2Cc2ccc(C)cc2)cc1", "Discrete Label": "f"}
{"Smi": "CC(=O)Oc1ccc(-c2c(C)c3ccc(OC(C)=O)cc3n2-c2ccccc2)cc1", "Discrete Label": "f"}
{"Smi": "CC(=O)Oc1ccc(-c2c(C)c3cc(OC(C)=O)ccc3n2Cc2ccccc2)cc1", "Discrete Label": "f"}
